Values compiled from patent US6737383B1.

- Tested on: giant foxtail
- TEST_METHOD_NOTES: Test B pre/postemergence giant foxtail
- Type: in vivo, Setaria faberii
- REPORTED_CONDITIONS: Rate 250 g/ha, Postemergence; scale of 0 to 10 where 0 is no effect and 10 is complete control
ENDPOINT: Plant response rating, Giant foxtail
Reply briefly: the number, and no unit.

The following molecules have reported results that may help.
smiles_code=CC(Cl)=CCn1c(=O)on(C(=O)N(c2ccc(Cl)cc2)C(C)C)c1=O tested_target="giant foxtail" assay_result=6
smiles_code=CC(C)=CCn1c(=O)on(C(=O)N(c2ccccc2)C(C)C)c1=O tested_target="giant foxtail" assay_result=6
smiles_code=CC(C)N(C(=O)n1oc(=O)n(CC2CCCC2)c1=O)c1ccc(F)cc1 tested_target="giant foxtail" assay_result=1

INPUT: Can you share its Plant response rating, Giant foxtail? I mean this molecule: `Cc1ccccc1-n1c(=O)on(C(=O)N(c2cccc(F)c2)C(C)C)c1=O`
OUTPUT: 0
